Tested on: ferrets (right ventricular contractile force, blood pressure)
Assay: In vivo inotropic activity in ferrets
Set-up: species or system ferret
Conditions: Mustela putorius, 1 h; anesthetized ferret, intraduodenal, 3 mg/kg, 60 minutes, vs predose control; read-out: Maximum Percentage Change Right Ventricular Contractile Force (RVCF)
Recorded change in vivo at 3 mg/kg, one value per entry.
Give your result in % as a bare value.

Some entries whose results are on file:
Ask: Would you mind telling me what change in vivo at 3 mg/kg value was observed for `COC(=O)CCCOc1ccc2nc3[nH]c(=O)[nH]c3cc2c1` ?
Reply: -9

Ask: `O=C(CCCOc1ccc2nc3[nH]c(=O)[nH]c3cc2c1)N1CCCCC1` , same question.
Reply: 32

Ask: `O=C(CCCOc1ccc2nc3[nH]c(=O)[nH]c3cc2c1)NC12CC3CC(CC(C3)C1)C2` , same question.
Reply: 6

Continuing:
Ask: Would you mind telling me what change in vivo at 3 mg/kg value was observed for `CN(C(=O)CCCOc1ccc2nc3[nH]c(=O)[nH]c3cc2c1)C1CCCCC1` ?
Reply: 35

Ask: `CN(C(=O)CCCOc1ccc2nc3nc(O)n(C)c3cc2c1)C1CCCCC1` , same question.
Reply: 3

Ask: `CN(C(=O)CCCCOc1ccc2nc3nc(O)n(C)c3cc2c1)C1CCCCC1` , same question.
Reply: 35

Ask: `CN(C(=O)CCCCOc1ccc2nc3[nH]c(=O)n(C)c3cc2c1)C1CCCCCC1` , same question.
Reply: 27

Ask: `COC(=O)CN(C(=O)CCCOc1ccc2nc3[nH]c(=O)[nH]c3cc2c1)C1CCCCC1` , same question.
Reply: 26
